- Test system: NCI-H1666
- Procedure Text: relative viability (nuclei count vs DMSO), 5 days (fraction); higher = more cells survive
- Conditions: first compound 0.05 µM
Measured Parameter: relative viability

Form field: reported relative viability of CC1(C)CCC(c2ccc(Cl)cc2)=C(CN2CCN(c3ccc(C(=O)NS(=O)(=O)c4ccc(N[C@H](CCN5CCOCC5)CSc5ccccc5)c(S(=O)(=O)C(F)(F)F)c4)cc3)CC2)C1 [Navitoclax] + Cc1nc(Nc2ncc(C(=O)Nc3c(C)cccc3Cl)s2)cc(N2CCN(CCO)CC2)n1 [Dasatinib] (partner 0.075 µM)
0.755

Lab note: next compound to report on.
Form field: reported relative viability of CC1(C)CCC(c2ccc(Cl)cc2)=C(CN2CCN(c3ccc(C(=O)NS(=O)(=O)c4ccc(N[C@H](CCN5CCOCC5)CSc5ccccc5)c(S(=O)(=O)C(F)(F)F)c4)cc3)CC2)C1 [Navitoclax] + C[C@]1(O)C[C@@H](c2nc(-c3ccc4ccc(-c5ccccc5)nc4c3)c3c(N)nccn32)C1 [Linsitinib] (partner 1 µM)
0.82

---

- Tested on: NCI-H2228
- Procedure Text: relative viability (nuclei count vs DMSO), 5 days (fraction); higher = more cells survive
- Conditions: first compound 0.08 µM
As shown below, each of these compounds has a reported relative viability value.
Reply with just the number.

Example entries begin here.
Form field: reported relative viability of Oc1nc(-c2ccc(C(F)(F)F)cc2)nc2c1CSCC2 [XAV939] + CCNC(=O)c1noc(-c2cc(C(C)C)c(O)cc2O)c1-c1ccc(CN2CCOCC2)cc1 [Luminespib] (partner 0.01 µM)
0.156

Form field: reported relative viability of Oc1nc(-c2ccc(C(F)(F)F)cc2)nc2c1CSCC2 [XAV939] + O=C(CCCCCCC(=O)Nc1ccccc1)NO [Vorinostat] (partner 1 µM)
0.639

Form field: reported relative viability of C=C1C(=O)O[C@@H](CCCCCCCC)[C@@H]1C(=O)O [C-75] + CC(=O)Nc1cccc(-n2c(=O)n(C3CC3)c(=O)c3c(Nc4ccc(I)cc4F)n(C)c(=O)c(C)c32)c1 [Trametinib] (partner 0.02 µM)
0.666

Form field: reported relative viability of C=C1C(=O)O[C@@H](CCCCCCCC)[C@@H]1C(=O)O [C-75] + Cc1nc(Nc2ncc(C(=O)Nc3c(C)cccc3Cl)s2)cc(N2CCN(CCO)CC2)n1 [Dasatinib] (partner 0.075 µM)
0.613

Lab note: next compound to report on.
Form field: reported relative viability of C=C1C(=O)O[C@@H](CCCCCCCC)[C@@H]1C(=O)O [C-75] + O=C(CCCCCCC(=O)Nc1ccccc1)NO [Vorinostat] (partner 1 µM)
0.617

---

- Test system: NCI-H322M
- Procedure Text: relative viability (nuclei count vs DMSO), 5 days (fraction); higher = more cells survive
- Conditions: first compound 2.53 µM
Exam item: assign Met to entries whose relative viability is below 0.6 and Not met to entries at or above 0.6. Note that a value of exactly 0.6 receives Not met.

Here's what some known entries look like.
Dear colleague, could you confirm whether relative viability of Oc1nc(-c2ccc(C(F)(F)F)cc2)nc2c1CSCC2 [XAV939] + CC(=O)Nc1cccc(-n2c(=O)n(C3CC3)c(=O)c3c(Nc4ccc(I)cc4F)n(C)c(=O)c(C)c32)c1 [Trametinib] (partner 0.02 µM) falls below 0.6? Thanks.
Met

Dear colleague, could you confirm whether relative viability of Oc1nc(-c2ccc(C(F)(F)F)cc2)nc2c1CSCC2 [XAV939] + O=C(c1cc(Cc2n[nH]c(=O)c3ccccc23)ccc1F)N1CCN(C(=O)C2CC2)CC1 [Olaparib] (partner 8 µM) falls below 0.6? Thanks.
Not met

Dear colleague, could you confirm whether relative viability of Oc1nc(-c2ccc(C(F)(F)F)cc2)nc2c1CSCC2 [XAV939] + COc1cccc2cc(-c3nc([C@H]4CC[C@H](C(=O)O)CC4)n4ncnc(N)c34)[nH]c12 [OSI-027] (partner 0.5 µM) falls below 0.6? Thanks.
Met

Dear colleague, could you confirm whether relative viability of C=C1C(=O)O[C@@H](CCCCCCCC)[C@@H]1C(=O)O [C-75] + C[C@]1(O)C[C@@H](c2nc(-c3ccc4ccc(-c5ccccc5)nc4c3)c3c(N)nccn32)C1 [Linsitinib] (partner 1 µM) falls below 0.6? Thanks.
Not met

Others:
Dear colleague, could you confirm whether relative viability of Oc1nc(-c2ccc(C(F)(F)F)cc2)nc2c1CSCC2 [XAV939] + Cc1nc(Nc2ncc(C(=O)Nc3c(C)cccc3Cl)s2)cc(N2CCN(CCO)CC2)n1 [Dasatinib] (partner 0.075 µM) falls below 0.6? Thanks.
Met

Dear colleague, could you confirm whether relative viability of Oc1nc(-c2ccc(C(F)(F)F)cc2)nc2c1CSCC2 [XAV939] + CC(C)C[C@H](NC(=O)[C@H](Cc1ccccc1)NC(=O)c1cnccn1)B(O)O [Bortezomib] (partner 0.002 µM) falls below 0.6? Thanks.
Not met

Dear colleague, could you confirm whether relative viability of Oc1nc(-c2ccc(C(F)(F)F)cc2)nc2c1CSCC2 [XAV939] + CCNC(=O)c1noc(-c2cc(C(C)C)c(O)cc2O)c1-c1ccc(CN2CCOCC2)cc1 [Luminespib] (partner 0.01 µM) falls below 0.6? Thanks.
Met

Dear colleague, could you confirm whether relative viability of C=C1C(=O)O[C@@H](CCCCCCCC)[C@@H]1C(=O)O [C-75] + Cc1nc(Nc2ncc(C(=O)Nc3c(C)cccc3Cl)s2)cc(N2CCN(CCO)CC2)n1 [Dasatinib] (partner 0.075 µM) falls below 0.6? Thanks.
Met

Dear colleague, could you confirm whether relative viability of Oc1nc(-c2ccc(C(F)(F)F)cc2)nc2c1CSCC2 [XAV939] + Nc1nc2[nH]cc(CCc3ccc(C(=O)N[C@@H](CCC(=O)O)C(=O)O)cc3)c2c(=O)[nH]1 [Pemetrexed] (partner 0.2 µM) falls below 0.6? Thanks.
Met
